# assay_details: AUC in Sprague-Dawley rat at 2 mg/kg, po
# Type: ADME, organism-based
# Set-up: dose 2 mg/kg, route oral
# experimental_parameters: plasma
For each entry below, report its AUC value.
Numbers only, in µM·h.

Tell me the measured AUC of CC1(C)OC(=O)N([C@H]2CC[C@H](c3cnc(N)c(-c4ncccn4)c3)CC2)[C@H]1c1ccccc1 , please.
1.98

// moving on: another record for AUC
Tell me the measured AUC of CC1(C)OC(=O)N(c2ccc(-c3cnc(N)c(-c4ncccn4)c3)cc2)[C@H]1c1ccccc1 , please.
2.71

* * *

# assay_details: Intrinsic clearance in human liver microsomes
# Format: ADME
# experimental_parameters: read-out: CLH
attribute_measured: microsomal CLint (µL/min/mg)
One number for each entry, in µL/min/mg.

Tell me the measured microsomal CLint of CC1(C)OC(=O)N(c2ccc(-c3cnc(N)c(-c4ncccn4)c3)cc2)[C@H]1c1ccccc1 , please.
33

Measured values drawn from ChEMBL document CHEMBL3098003 for this set.
